Test system: NCI-H1944
measurement protocol: normalised cell viability (NPI; 0 = phenylarsine oxide control, 1 = DMSO control) (fraction of DMSO control); higher = more viable cells (less compound toxicity)
experimental setup: glucocorticoid arm: hydrocortisone 2.75 uM pre-treated 2 days and continued; compound 5 µM; 6 days
Counter-ions that a name gives are not always drawn. In all, about 1,900 compounds were measured (“normalised cell viability (NPI; 0 = phenylarsine oxide control, 1 = DMSO control)”: median about 1, lowest 2% from about 0.039 on). What follows is part of a selection rich in the lowest values, with near analogues and random picks from the rest.
assay metric: normalised cell viability
Give bare numbers.

Consider the following illustrative entries.
N/C(=N\C(=O)c1nc(Cl)c(N)nc1N)NCc1ccc(Cl)c(Cl)c1 [3',4'-Dichlorobenzamil hydrochloride] | 0.862
c1ccc2c(-c3cnn4cc(-c5ccc(N6CCNCC6)cc5)cnc34)ccnc2c1 | 1.09
N[C@@H](Cc1c[nH]c2ccccc12)C(=O)O [L-Tryptophan] | 1.03
N=C(N)NC(=O)c1nc(Cl)c(N)nc1N [Amiloride hydrochloride] | 0.992

Could I get normalised cell viability for every one of these entries?
1. N/C(=N\C(=O)c1nc(Cl)c(N)nc1N)NCc1ccccc1 [Benzamil hydrochloride]
2. CCN(CC)CCCC(C)Nc1c2ccc(Cl)cc2nc2ccc(OC)cc12 (configuration not stated) [Quinacrine dihydrochloride]
3. CCN(CC)CCCC(C)Nc1ccnc2cc(Cl)ccc12 (configuration not stated) [Chloroquine diphosphate]
4. O=c1[nH]c(=O)n([C@H]2C[C@H](O)[C@@H](CO)O2)cc1/C=C/Br [(E)-5-(2-Bromovinyl)-2'-deoxyuridine]
5. NC[C@@H]1O[C@H](C23CC4CC(CC(C4)C2)C3)Cc2c1ccc(O)c2O
6. CN1CCC[C@@H]1Cc1c[nH]c2ccc(CCS(=O)(=O)c3ccccc3)cc12 [Eletriptan HBr]
7. N[C@@H](Cc1c[nH]cn1)C(=O)O [L-Histidine hydrochloride]
8. c1cc(CN2CCCNCCNCCCNCC2)ccc1CN1CCCNCCNCCCNCC1 [Plerixafor]

[1.05, 1.01, 0.963, 1.01, 0.996, 1.02, 1.02, 0.996]

---

Tested on: NCI-H1944
measurement protocol: normalised cell viability (NPI; 0 = phenylarsine oxide control, 1 = DMSO control) (fraction of DMSO control); higher = more viable cells (less compound toxicity)
experimental setup: glucocorticoid arm: hydrocortisone 2.75 uM co-treatment; compound 1 µM; 6 days
Structures can show the parent of a compound that is named as a salt. The full ranking holds about 1,900 compounds; the median of “normalised cell viability (NPI; 0 = phenylarsine oxide control, 1 = DMSO control)” is about 1, and the lowest 2% start at about 0.039. The entries come from a sample that favours the lowest values as a whole.
assay metric: normalised cell viability
Give bare numbers.

Example molecules with recorded normalised cell viability:
C#C[C@]1(O)CC[C@H]2[C@@H]3CCC4=Cc5oncc5C[C@]4(C)[C@H]3CC[C@@]21C [Danazol] | 0.998
C#Cc1ccc2c(c1)C(=O)N(C)Cc1c(C(=O)OCCCOC(=O)c3ncn4c3CN(C)C(=O)c3cc(C#C)ccc3-4)ncn1-2 [Xli 093 hydrate] | 0.999
CN1C2CCC1CC(NC(=O)c1nn(C)c3ccccc13)C2 (configuration not stated) [LY-278,584 maleate] | 0.986

# return normalised cell viability for each item in the list
1. O=C(NCCO)c1ccc2c(c1)nc(Nc1cccc(Cl)c1)c1ccncc12 [CK2 Inhibitor 2]
2. CCN(CC)Cc1ccc2cc(COC(=O)Nc3ccc(C(=O)NO)cc3)ccc2c1 [Givinostat (ITF2357)]
3. N=C(NC(=O)c1nc(Cl)c(N)nc1N)Nc1ccccc1 [Phenamil methanesulfonate]
4. CC(C)c1ccccc1Cc1cc(C(=O)Nc2ccc(S(=O)(=O)c3ccccc3C(C)(C)C)cc2)c(O)c(O)c1O
5. Nc1ncn([C@@H]2O[C@H](CO)[C@@H](O)[C@H]2O)c(=O)n1 [5-azacytidine]
6. CCN(CC)CCNC(=O)c1ccc(NC(C)=O)cc1 [N-Acetylprocainamide hydrochloride]
7. CCC[C@H](NC(=O)/C(C#N)=C/c1cccc(Br)n1)c1ccccc1

[1.02, 0.726, 1.01, 0.993, 1.01, 0.979, 1.02]

Please look at the items below and tell me normalised cell viability for each one, in order.
1. Nc1ccn([C@@H]2O[C@H](CO)[C@@H](O)[C@@H]2O)c(=O)n1
2. CSC(=N)NCCC[C@H](N)C(=O)O [S-Methyl-L-thiocitrulline acetate]
3. CN(C)CCOc1ccc(-c2nc(-c3ccncc3)c(-c3ccc4c(c3)CC/C4=N\O)[nH]2)cc1
4. C[C@@H](NC(=O)/C(C#N)=C/c1ccc(O)c(O)c1)c1ccccc1 [Tyrphostin AG 527]
5. OC[C@H]1NC[C@@H](O)[C@@H]1O [1,4-Dideoxy-1,4-imino-D-arabinitol]

[0.178, 1, 1.1, 1.01, 0.999]

For every item below, please supply its normalised cell viability.
1. Nc1ncn([C@@H]2O[C@H](CO)[C@@H](O)[C@H]2O)c(=O)n1 [Azacitidine; 5-azacytidine]
2. COc1ccc(Cn2ccc3ccc(C(=O)NO)cc32)cc1

1.04
0.959

---

Can you tell me normalised cell viability for the items I'm about to list?
Test system: NCI-H1944;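 also: CTB read-out in 384-well plates, triplicate wells, NPI normalised per plate against 1 µM phenylarsine oxide (0) and 0.1% DMSO (1) controls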
measurement protocol: normalised cell viability (NPI; 0 = phenylarsine oxide control, 1 = DMSO control) (fraction of DMSO control); NCI-H1944 is a non-small cell lung cancer line; higher = more viable cells (less compound toxicity)
experimental setup: glucocorticoid arm: vehicle; compound 1 µM; 6 days
Counter-ions that a name gives are not always drawn. Over roughly 1,900 compounds, “normalised cell viability (NPI; 0 = phenylarsine oxide control, 1 = DMSO control)” has its median near 1; the lowest 2% begin near 0.039. For the sample, the lowest values were picked, then their nearest neighbours and some compounds at random.

Reference set (2 entries):
CC(C)C(=O)Oc1ccc(CO)cc1[C@H](CCN(C(C)C)C(C)C)c1ccccc1 [Fesoterodine Fumarate] | 1
CC1c2cccc(O)c2C(O)=C2C(=O)C3(O)C(O)=C(C(N)=O)C(=O)C(N(C)C)C3C(O)C21 (configuration not stated) [Doxycycline hydrochloride] | 0.99

Look at each compound and report its normalised cell viability.
1. COc1ccc(Cn2ccc3ccc(C(=O)NO)cc32)cc1
2. C=CC(=O)Nc1cc(Nc2nccc(-c3cn(C)c4ccccc34)n2)c(OC)cc1N(C)CCN(C)C
3. c1ccc(C2CN3CCSC3=N2)cc1 (single isomer, unassigned; (-)) [(-)-Tetramisole hydrochloride]
4. CCN1C(=CC(C)=O)Sc2ccc(OC)cc21
5. CCN1CCN(Cc2ccc(-c3cc4c(N[C@H](C)c5ccccc5)ncnc4[nH]3)cc2)CC1
6. N=C(N)NC(=O)c1nc(Cl)c(N)nc1N [Amiloride hydrochloride]
7. CC(C)C[C@H](NC(=O)[C@H](Cc1ccccc1)NC(=O)c1cnccn1)B(O)O

1: 0.998; 2: 0.789; 3: 1.02; 4: 1.01; 5: 0.81; 6: 0.995; 7: 0.00407

Answer for every listed entry: what is its normalised cell viability? The entries follow.
1. CCN1CCN(Cc2ccc(Nc3ncc(F)c(-c4cc(F)c5nc(C)n(C(C)C)c5c4)n3)nc2)CC1
2. CCCCCCCCCCCCCCCc1cccc(O)c1C(=O)O
3. CCN(CC)Cc1ccc2cc(COC(=O)Nc3ccc(C(=O)NO)cc3)ccc2c1
4. CN/C(=N\c1ccc(C2=NNC(=O)CC2C)cc1)NC#N (configuration not stated)
5. CC(C)CC(=O)Nc1n[nH]c2c1CN(C(=O)C1CCN(C)CC1)C2(C)C
6. O=c1[nH]c2cc(Cl)c(Cl)cc2[nH]c1=O

0.252
1
0.139
0.995
0.365
0.989

# map each compound to its normalised cell viability
1. CCCCCCCCOc1ccccc1C(=O)Nc1ccc(C(=O)OCC[N+](C)(CC)CC)cc1 [Otilonium Bromide]
2. N=C(N)NCCC[C@H](N)C(=O)O
3. Nc1ccn([C@@H]2O[C@H](CO)[C@@H](O)[C@@H]2O)c(=O)n1
4. OC[C@H]1NC[C@@H](O)[C@@H]1O
5. CCC[C@H](NC(=O)/C(C#N)=C/c1cccc(Br)n1)c1ccccc1
6. N/C(=N\C(=O)c1nc(Cl)c(N)nc1N)NCc1ccccc1 [Benzamil hydrochloride]
7. CCCCC1(C2CCCC2)Cc2cc(OCC(=O)O)c(Cl)c(Cl)c2C1=O (stereo in doubt) [R(+)-Butylindazone]

1.01
0.986
0.0325
1
0.996
0.99
0.983

For every listed record, write down its normalised cell viability.
1. COc1ccc2cc(-c3nc(-c4ccc([S+](C)[O-])cc4)[nH]c3-c3ccncc3)ccc2c1 (configuration not stated)
2. O=C1NC(=O)/C(=C/c2ccc3nccc(-c4ccncc4)c3c2)S1
3. C[C@H](NC(=O)/C(C#N)=C/c1cccc(Br)n1)c1ccccc1
4. CC(C)(C)c1ccc(S(=O)(=O)/C=C/C#N)cc1

0.997
0.886
0.999
0.972
